test system: TO-3-N3-2 (biotin conjugate); assay: pull-down binding Z-score (relative to library population); higher = stronger binding; conditions: RNA library: Library-2
Lab note: compare pull-down binding Z-score against 0.1. Equal or greater, write Fulfilled. Smaller, write Not fulfilled.

Query :: Quick check: does CUACUCAAGGCUAG [hsa-mir-4266] have pull-down binding Z-score greater than or equal to 0.1?
Result :: Fulfilled

Query :: Item CUGGGAAGGGAGCUGUCCGGCUCCCCAG [hsa-mir-3155b] with pull-down binding Z-score of 0.1 or above?
Result :: Not fulfilled

Query :: hey, is pull-down binding Z-score for this one >= 0.1? UUCUUUUUUCUGAAAUUCUUCAGGAAGGA [hsa-mir-3167]
Result :: Fulfilled

Query :: Check the entry GAGACGGUCGGGUCCAGAUAUUCGUAUCUGUCGAGUAGAGUGUGGGCUCC [Broccoli] : does pull-down binding Z-score equal or exceed 0.1?
Result :: Fulfilled

Query :: Answer whether pull-down binding Z-score of GUGCCUGGAAUAUUGGUGAACAGAAAUCAAUACUGAGUCCUCUUUAUGCAUUUGCAUCAGAGGCUGCUCGUGUUGUACGAUCAAUUUUCUCCCGCAC [SHAPE_invivo_SARS-CoV-2_Motif_37] is greater than or equal to 0.1.
Result :: Not fulfilled

Query :: Hi team, for CUUACUGUACACGUGGCUGGCAAG [hsa-mir-4428] , is the recorded pull-down binding Z-score at or above 0.1?
Result :: Fulfilled

Query :: Record AGCAAGGUGCGUCGUAUCUUGCU [hsa-mir-4804] ; criterion: pull-down binding Z-score no lower than 0.1. Met?
Result :: Not fulfilled

Query :: API: above_or_equal(metric=pull-down binding Z-score, cutoff=0.1) for item UAAGUGUCCUAGCACUUA [hsa-mir-374b]
Result :: Not fulfilled

Query :: Please indicate if the recorded pull-down binding Z-score for GGUGUGGAUGGCAUGCC [IAV_invivo_NP_5_Motif_17+IAV_invivo_NP_5_Motif_17] meets or exceeds 0.1.
Result :: Not fulfilled
